Assignment: determine reported growth inhibition for the given compounds.
- assaySummary: NCI Yeast Anticancer Drug Screen. Data for the bub3 strain (AID 167)
- setupConditions: S. cerevisiae bub3 mutant strain, at 50.0 µM, hits give high values
About 79,000 compounds went through this panel and 15% of them were active in at least one assay; those are over-represented in the sample as a whole.
Answer in %, number only, no unit symbol.

Please indicate growth inhibition recorded for C=C1C(=O)OC2CC3(C)OC3C3OC3C3=CC(OC3=O)C12 (configuration not stated)
41.4

Respond only with growth inhibition recorded for O=C(O)c1cccc(Cl)c1
25.9

Complete the entry with growth inhibition for C/C=C(\C)C1(CC)C(=O)NC(=O)N(C)C1=O (configuration not stated)
-1.05

Respond only with growth inhibition recorded for OC1C2CCC1C(N1CCOCC1)CC2 (configuration not stated)
18.5

Hello, please tell me recorded growth inhibition for this one: CC(C)COP(=O)(Cc1ccccc1)OCC(C)C
5

Could you please provide reported growth inhibition for CC(=O)C(=[N+]=[N-])C(=O)N(C)CCC#N ? Thanks!
7.25

Using the record for CCC(O)C[As](=O)(O)c1ccccc1OC (configuration not stated) , state its measured growth inhibition.
18.1

----------
Assign growth inhibition to each entry below.
- assaySummary: NCI Yeast Anticancer Drug Screen. Data for the cln2 rad14 strain (AID 165);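 also: 0% = growth equal to vehicle treated cultures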
- setupConditions: S. cerevisiae cln2 rad14 strain, at 50.0 µM, hits give high values
The panel holds about 79,000 compounds, 15% with a hit somewhere; the sample as a whole holds those more often.
Form entry: value (%) — number only.

Entry O=NN1CCCS1(=O)=O needs its growth inhibition filled in; supply it.
14.3

Identify measured growth inhibition associated with S=[As](c1ccc(-c2ccccc2)cc1)(c1ccc(-c2ccccc2)cc1)c1ccc(-c2ccccc2)cc1
-19.6

Give growth inhibition for the following compound: CN(C)P1(=O)NCC(C(C)(C)C)CO1 (stereo not drawn)
21.6

Please supply the value of reported growth inhibition for the item Cc1ccc2nc(CCl)[nH]c2c1
18.4

Give growth inhibition for the following compound: CCCCOP(=O)(CSCC)OCCCC
16.2

Provide growth inhibition value for the following compound: OCC(S)CS (stereo not drawn)
2.9

Read off the recorded growth inhibition for O=C=Nc1ccc(Br)cc1
-17.2

Please give measured growth inhibition of the following entry: COc1cc(C)c(OP(=O)(OC)OC)cc1C
59.1

Give reported growth inhibition value for O=P1(Oc2ccccc2)N(CCCl)CCN1c1ccccc1 (stereo not drawn)
13.2

Give reported growth inhibition value for CC(=O)OC(C)(C)/C=C/C(=O)[C@](C)(O)[C@H]1[C@H](O)C[C@@]2(C)[C@@H]3CC=C4[C@@H](C=C(O)C(=O)C4(C)C)[C@]3(C)C(=O)C[C@]12C
-10.8

Tell me measured growth inhibition for CC(C)(C)c1cc2c(=O)o[s+]3oc(=O)c(c1)c23 please.
1.35

Output growth inhibition of CS(=O)(=O)Oc1c(Cl)cc(S(=O)(=O)F)cc1Cl
45.6

Entry CCOP(=O)(OCC)SC#N needs its growth inhibition filled in; supply it.
6.5

----------
- assaySummary: NCI Yeast Anticancer Drug Screen. Data for the rad50 strain (AID 155);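 also: 0% = growth of vehicle-only cultures of the same strain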
- setupConditions: S. cerevisiae rad50 strain growth inhibition; at 50.0 µM; hits give high values
Compounds without any hit were thinned out: in the full panel of roughly 79,000, 15% have a hit.
valueType: growth inhibition (%)
# unit: % | format: bare number

Provide growth inhibition value for the following compound: [N-]=[N+]=C1C(=O)C2CC3CC1CC2C3 (stereo not given)
-3.55

Find the measured growth inhibition of CNC(=O)O/N=C(\SC)C(=O)N(C)C and report it.
-39.9

Give the value of growth inhibition reported for the following: CC1=CC(=O)[C@@H](O)[C@]2(C)[C@H]3[C@@]4(O)OC[C@]35[C@H]([C@@H](C)[C@H]4O)[C@@H](O)C(=O)O[C@@H]5C[C@@H]12
41.8

Report growth inhibition for Clc1cccc(NC2=NCCS2)c1
-7.35

Report growth inhibition for O=C([CH-]C(=O)c1ccccc1)c1ccccc1.O=C([CH-]C(=O)c1ccccc1)c1ccccc1.[OH-].[OH-].[Ti+4]
6.25

Write down growth inhibition measured for item CCN(CC)/C(=C\Cl)Nc1ccccn1
-0.9

Provide growth inhibition value for the following compound: CN(C)C(=O)Oc1cc(O)cc([N+](=O)[O-])c1
-5.45

Find the measured growth inhibition of COc1ccc(CCN2CCOCC2)cc1 and report it.
31.9

Write down growth inhibition measured for item CCCOP(=O)(OCCC)C(=O)Nc1ccc(Br)cc1
-25.7

Give growth inhibition for the following compound: Clc1cc2nncc(N3CC3)c2cc1Cl
-3.25

Respond only with growth inhibition recorded for CCCCS(=O)(=O)C(c1ccccc1)c1ccccc1
69.2

Provide only the value of recorded growth inhibition for COc1ccc(C2=CCN(c3ccc(C)cc3)P(=O)(N(CCCl)CCCl)O2)cc1 (stereo not given)
46.8

Find the measured growth inhibition of CCC1C2Cc3ccc(O)cc3C1(CC)CCN2C (stereo not given) and report it.
10.6

Look up growth inhibition of CCOC(=S)S.[Ag] and report it.
1.6

Please indicate growth inhibition recorded for CCOP(=O)(OCC)/C(C#N)=C/c1cnc[nH]1
-51.6

Identify the reported growth inhibition for the following entry. NC(=O)C(Cl)c1ccccc1 (stereo not given)
-17.2

Return reported growth inhibition. Input compound: CC1(C)OCC(CO)(Nc2nc(N3CC3)nc(N3CC3)n2)CO1
-12.6

Look up and report measured growth inhibition for this entry: CC(=O)N1CN2CN(C1)CN(C(C)=O)C2
0.3

Hello, please tell me recorded growth inhibition for this one: CCN(CC)CCO
-4.1

Supply reported growth inhibition belonging to this compound: CC(C)c1cc(C(C)C)c(S(=O)(=O)N=[N+]=[N-])c(C(C)C)c1
12.6

Return the recorded growth inhibition value; entry: C[C@]12CC[C@@H]3C4=CC(=O)CC[C@@H]4CC[C@H]3[C@@H]1CC[C@@H]2O
-4.3

State its growth inhibition: CC1(C)C(=O)CC[C@@]2(C)C1=CC[C@@H]1[C@@H]2CC[C@@]2(C)[C@H]1CC[C@]2(C)O
5.75

Quote growth inhibition reported for COc1cccc(C2CC(=O)c3cccn32)c1 (stereo not given) please.
11.3

Write down growth inhibition measured for item CCC[As](=O)(O)c1ccc(Cl)cc1
88.5

Tell me measured growth inhibition for CC(Cl)CN1CCCCC1 (stereo not given) (tested in a mixture with another compound) please.
15.2

----------
What growth inhibition was measured for each of the following?
- assaySummary: NCI Yeast Anticancer Drug Screen. Data for the mlh1 rad18 strain (AID 175)
- setupConditions: S. cerevisiae mlh1 rad18 strain growth inhibition; at 50.0 µM; hits give high values
The panel holds about 79,000 compounds, 15% with a hit somewhere; the sample as a whole holds those more often.
Answer with a number only, understood to be in %.

Write down growth inhibition measured for item [CH3][Hg][O]C(C)=O
99.7

Entry Cn1cnnc1[N+](=O)[O-] needs its growth inhibition filled in; supply it.
15.7

Report measured growth inhibition; entry is C/C=C1/C[C@@H](C)[C@@](C)(O)C(=O)OCC2=CC[N+]3([O-])CC[C@@H](OC1=O)[C@@H]23 (stereo partly specified)
-53.6

Provide only the value of recorded growth inhibition for [Se]=[Hf]=[Se]
-26.6

Determine its reported growth inhibition: C1CN2CCOC2O1
-7.1

Provide only the value of recorded growth inhibition for COC(=O)C1(F)C(=O)NC(=O)NC1O (stereo unspecified)
2.25

Answer with the recorded growth inhibition of CCOC(=O)c1c(SC)nc(-c2ccc(Cl)cc2)sc1=N only.
-19.7

# return recorded growth inhibition for input O=S(c1ccc(Cl)cc1)c1ccc(Cl)cc1
19.1

Identify growth inhibition associated with the molecule CO[C@H]1C[C@H](O[C@H]2CC[C@]3(C=O)[C@H]4CC[C@]5(C)[C@@H](C6=CC(=O)OC6)CC[C@]5(O)[C@@H]4CC[C@]3(O)C2)O[C@H](C)[C@H]1O
32.3

Give the reported growth inhibition for this molecule. [CH3][Sb]([CH3])([CH3])([I])[I]
1.25

Please report growth inhibition for the following molecule: CC(C)(C)NCC(COc1ccc([N+](=O)[O-])cc1)OP(c1ccccc1)c1ccccc1 (stereo unspecified)
21.3

----------
- assaySummary: NCI Yeast Anticancer Drug Screen. Data for the sgs1 mgt1 strain (AID 161);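 also: 0% = growth of cultures given vehicle only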
- setupConditions: S. cerevisiae sgs1 mgt1 strain, at 50.0 µM
Compounds without any hit were thinned out: in the full panel of roughly 79,000, 15% have a hit. Active and inactive are the calls of the source. No stated cut-off is given here; in the data, active means growth inhibition above about 70%; inactive means the rest.
Parameter call: string, one of yes (active), no (inactive)

Hello, I am checking results. What call was entered for CN1C(=O)C2(c3ccccc31)C1CC3C(CO1)C1C2C3(CO)CN1C#N (stereo not drawn) ?
no

Name the outcome recorded for Nc1nc(N)c2[nH]c(N)nc2n1 in the assay.
no

How was CC(C)(C)N1COC2CCCCC21 (stereo not drawn) classified in this test?
no

Dear all, I need the recorded test outcome for CC(=O)OC1CCC2(CO)C(CCC3C4CCC(=O)C4(C)CCC32)C1 (stereo not drawn) , thank you.
no

What is the recorded call for this compound in the test? ClC12OOC(c3ccccc3)(O1)C(c1ccccc1)c1ccccc12 (stereo not drawn)
no

Just curious, what result did CC(C)OP(=O)(OC(C)C)/C(C#N)=C/c1ccco1 get here?
no

Could you check what this test reported for N.N.N.N.N.N.O=N[O-].[Br-].[Co+3].[Co+3].[OH3+].[OH3+] ?
no

What was the test verdict on C/C=C\CC1(C/C=C/C)C(=O)NC(=O)NC1=O ?
no

Which outcome was entered for the compound Nc1nnnn1CCO in this test?
no

What classification did CCC1(C(C)=O)CN2CCc3cc(OC)c(OC)cc3C2N2CCc3ccc(OC)c(OC)c3C21 (stereo not drawn) end up with in this test?
yes

Which outcome was assigned to O=C(c1ccccc1)N1CC(Cl)CN(C(=O)c2ccccc2)CC(Cl)C1 (stereo not drawn) in this test?
no

In this assay, the call recorded for CN1C(=O)c2ccccc2NC(=O)C12OC2c1ccccc1 (stereo not drawn) was what?
no

Hi, sorry to bother you, what did the test record for CCOP(=O)(Cc1ccc(N)cc1)OCC ?
no

// outcome(item) with item = O=C1CCCN1
no

So what was the verdict on CN(C)P(=O)(N(C)C)N(C)C (tested in a mixture with another compound) in this test?
no

For C=C(C)[C@]12CC(C)C34OC(/C=C\C=C\CCCCCCCCC)(O[C@@H]1[C@@H]3[C@@H]1O[C@]1(CO)[C@@H](O)[C@]1(O)C(=O)C(C)=C[C@@H]41)O2 (stereo partly drawn) , which call appears in the assay record?
yes

Fill in: this test's call for COc1cc(N=Nc2ccc([N+](=O)[O-])cc2)ccc1N(CCCl)CCCl is ___
no

GET /call?item= CC(=O)OC(C[N+](=O)[O-])C(Cl)(Cl)Cl (stereo not drawn) returns the recorded outcome of this test.
no

What did the test return for CCOP(=O)(OCC)OP(=O)(OCC)OCC ?
no

Fill in: this test's call for C(=NCCN=CC1CCCC[N-]1)C1CCCC[N-]1.[Cu+2].[O-][Cl+3]([O-])([O-])O (stereo not drawn) is ___
no

# outcome recorded in this test, key = CC(=O)OCC1OC([Se-])C(OC(C)=O)C(OC(C)=O)C1OC(C)=O.N#CCC[PH+](CCC#N)CCC#N.[Au+] (stereo not drawn)
no

Entry O=S(=O)(O)C(Br)(Br)Br : call = ?
no

For O=C(O)CCCc1ccc(N(CCCl)OCCCl)cc1 , which call appears in the assay record?
no
